Recorded pEC50 for the following compounds
target: N-formyl peptide receptor 2 (Homo sapiens, UniProt P25090); assay: Agonist activity at human FPR2 expressed in forskolin/IBMX-treated CHO cells incubated for 30 mins by HTRF HiRange cAMP assay
Sequence (P25090 whole entry): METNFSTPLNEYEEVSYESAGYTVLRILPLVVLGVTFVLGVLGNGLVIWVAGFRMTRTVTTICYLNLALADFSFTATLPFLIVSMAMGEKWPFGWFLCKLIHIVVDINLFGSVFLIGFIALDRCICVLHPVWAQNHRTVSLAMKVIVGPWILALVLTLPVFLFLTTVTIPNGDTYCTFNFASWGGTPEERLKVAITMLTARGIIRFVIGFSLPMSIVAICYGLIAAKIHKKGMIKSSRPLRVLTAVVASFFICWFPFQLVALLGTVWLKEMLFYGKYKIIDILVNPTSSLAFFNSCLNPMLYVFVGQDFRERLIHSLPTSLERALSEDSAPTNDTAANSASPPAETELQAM
# reply with the number alone; pEC50 is -log10 of concentration in mol/L

Q) Requested field: pEC50. Item: "CN(C)[C@@H]1CCN(c2ccc(N3CC[C@@H](NC(=O)Nc4ccc(C(F)(F)F)cc4F)C3=O)c(F)c2F)C1"
A) 10.00

Q) Requested field: pEC50. Item: O=C(Nc1ccc(Cl)cc1F)N[C@@H]1C[C@@H](CO)N(c2ccc(N3CCC(C(F)(F)F)C3)c(F)c2F)C1=O (stereo partly specified)
A) 9.85

Q) Requested field: pEC50. Item: O=C(Nc1ccc(Cl)cc1F)N[C@@H]1CCN(c2ccc(N3CCC(CO)C3)c(F)c2F)C1=O (stereo partly specified)
A) 9.13

Q) Requested field: pEC50. Item: CC(C)(O)C1CCCN1c1cc(F)c(N2CCC(NC(=O)Nc3ccc(Cl)cc3F)C2=O)c(F)c1 (stereo unspecified)
A) 9.29

Q) Requested field: pEC50. Item: "CN(C)[C@H]1CN(c2ccc(N3CC[C@@H](NC(=O)Nc4ccc(Cl)cc4F)C3=O)c(F)c2F)C[C@H]1F"
A) 9.15

Q) Requested field: pEC50. Item: O=C(Nc1ccc(Cl)cc1F)N[C@@H]1C[C@@H](CO)N(c2ccc(N3CCC(C(F)F)C3)c(F)c2F)C1=O (stereo partly specified)
A) 9.15
